Exercise: for every item that follows, state its recorded Km.
# Tested on: Mycolicibacterium smegmatis
# assay.name: Activity of Mycobacterial smegmatis-galactosyltransferase after 1 hr
Give the value in µM but do not write µM after it.

// Km lookup, key: `CN(C)c1cccc2c(S(=O)(=O)NCCO[C@@H]3O[C@@H](C[C@H](CO)O[C@@H]4O[C@@H]([C@@H](O)CO)[C@H](O)[C@H]4O)[C@H](O)[C@H]3O)cccc12` 7330

Would you mind doing `[N-]=[N+]=Nc1cccc2c(S(=O)(=O)NCCO[C@@H]3O[C@@H]([C@@H](O)CO[C@@H]4O[C@@H]([C@@H](O)CO)[C@H](O)[C@H]4O)[C@H](O)[C@H]3O)cccc12` as well? 1980

Cool, now `CN(C)c1cccc2c(S(=O)(=O)NCCO[C@@H]3O[C@@H]([C@@H](O)CO[C@@H]4O[C@@H]([C@@H](O)CO)[C@H](O)[C@H]4O)[C@H](O)[C@H]3O)cccc12` 2380

What about this molecule? [N-]=[N+]=Nc1cccc2c(S(=O)(=O)NCCO[C@@H]3O[C@@H](C[C@H](CO)OC4O[C@@H]([C@@H](O)CO)[C@H](O)[C@H]4O)[C@H](O)[C@H]3O)cccc12 (some centres undefined) 2770
